Target: Mdm2/p53 binding (GST-Mdm2 / His-p53) (Homo sapiens, UniProt Q00987, L33E)
Construct: Mdm2 partial protein having Mdm2 amino acids at positions 25 to 108
Sequence (Q00987 25-108 L33E): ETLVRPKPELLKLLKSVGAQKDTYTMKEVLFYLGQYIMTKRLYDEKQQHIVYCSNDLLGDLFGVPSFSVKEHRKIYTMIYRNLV
Assay: Mdm2/p53 binding assay (HTRF, His-p53 and GST-Mdm2)
Conditions: His-p53 (aa 1-132) and GST-Mdm2 (aa 25-108, L33E) 6.25 nM each; 25°C, 1 hour; values given as ranges
assay-readout: IC50

- molecule: "CC1(C)CCC2(CC1)N[C@@H](C(=O)N[C@H]1CC[C@](O)(CS(C)(=O)=O)CC1)[C@H](c1ccnc(Cl)c1F)[C@]21C(=O)Nc2cc(Cl)ccc21"
  experimental-value: "1 to 50 nM"
- molecule: "C[C@@H](O)[C@@H]1CC[C@@H](NC(=O)[C@@H]2NC3(CCC(C)(C)CC3)[C@@]3(C(=O)Nc4cc(Cl)ccc43)[C@H]2c2cccc(Cl)c2F)CO1"
  experimental-value: "1 to 50 nM"
- molecule: "COC(=O)c1cc(Cl)cc([C@H]2[C@H](C(=O)N[C@@H]3CC[C@@H](CO)OC3)NC3(CCC(C)(C)CC3)[C@@]23C(=O)Nc2cc(Cl)ccc23)c1"
  experimental-value: "50 to 100 nM"
- molecule: "CC1(C)CCC2(CC1)N[C@@H](C(=O)N[C@@H]1CC[C@@H](Cc3nnco3)OC1)[C@H](c1ccnc(Cl)c1F)[C@]21C(=O)Nc2cc(Cl)ccc21"
  experimental-value: "50 to 100 nM"
- molecule: "NC(=O)[C@@H]1CC[C@@H](NC(=O)[C@@H]2NC3(CC(CF)(CF)C3)[C@@]3(C(=O)Nc4cc(Cl)ccc43)[C@H]2c2ccnc(Cl)c2F)CO1"
  experimental-value: "1 to 50 nM"
- molecule: "O=C(N[C@H]1CC[C@H](c2nnco2)CC1)[C@@H]1NC2(CC(CF)(CF)C2)[C@@]2(C(=O)Nc3cc(Cl)ccc32)[C@H]1c1cccc(Cl)c1F"
  experimental-value: "50 to 100 nM"
- molecule: "CO[C@]1(CO)CC[C@H](NC(=O)[C@@H]2NC3(CCC(C)(C)CC3)[C@@]3(C(=O)Nc4nc(Cl)ccc43)[C@H]2c2ccnc(Cl)c2F)CC1"
  experimental-value: "1 to 50 nM"
- molecule: "CC(O)[C@@H]1CC[C@@H](NC(=O)[C@@H]2NC3(CC(CF)(CF)C3)[C@@]3(C(=O)Nc4cc(Cl)ccc43)[C@H]2c2cccc(Cl)c2F)CO1 (single isomer, unassigned) [Example 146]"
  experimental-value: "1 to 50 nM"
- molecule: "CO[C@@H]1C[C@@H](NC(=O)[C@@H]2NC3(CCC(C)(C)CC3)[C@@]3(C(=O)Nc4cc(Cl)ccc43)[C@H]2c2ccnc(Cl)c2F)CO[C@@H]1CO"
  experimental-value: "1 to 50 nM"
- molecule: "CC1(C)CCC2(CC1)N[C@@H](C(=O)N[C@H]1CC[C@H](NC(=O)CO)CC1)[C@H](c1cccc(Cl)c1F)[C@]21C(=O)Nc2cc(Cl)ccc21 (relative stereo)"
  experimental-value: "50 to 100 nM"
- molecule: "O=C(N[C@H]1CC[C@H](O)CC1)[C@@H]1NC2(CC(CF)(CF)C2)[C@@]2(C(=O)Nc3cc(Cl)ccc32)[C@H]1c1cccc(Cl)c1F (relative stereo)"
  experimental-value: "50 to 100 nM"

Where do the numbers come from? From patent US12545685B2.
